B1: CPEB3 Ribozyme (parent)
chain: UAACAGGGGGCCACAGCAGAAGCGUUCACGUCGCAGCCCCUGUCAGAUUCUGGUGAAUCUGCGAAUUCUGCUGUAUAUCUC

# Variants of: B1
# ASSAY_PROTOCOL: self-cleavage, relative activity (ratio to wild type); higher = more cleavage; in vitro, sequencing
Group membership follows self-cleavage per the scheme low range = under 0.2, mid range = from 0.2 up to 0.4, high range = 0.4 and over

Some solved entries appear below for comparison.
UAACAGGGGGCCACAGCAGAAGCGUUCACGUCGCAGCCCCUGUCAGAUUCUGGUGAAUGUGCGAAUUCUGAUGUAUAUCUC [C59G C71A] = mid range
UAACAGGGGGCCACAGCAGAAGCGUUCACGUCGCAGCCCCUGUCAGAAUCUGGUGAAUCUGCGAAUUCUGCUGUAUAACUC [U48A U78A] = high range
UAACAGGGGGCCACAGCAGAAGCGUUCACGUCGUAGCCCCUGUCAGAUUCUGGUGAAUCUUCGAAUUCUGCUGUAUAUCUC [C34U G61U] = low range
UAACAGGGCGCCACAGCAGAAGCGUUCACGACGCAGCCCCUGUCAGAUUCUGGUGAAUCUGCGAAUUCUGCUGUAUAUCUC [G9C U31A] = low range
UAACAGGGGGCCACAGCAGAAGCGUUCACGUCGCAGCCCCUGUCAGAUUCUGGUGAAUCUCCGAAUUCUGCUGUAUACCUC [G61C U78C] = mid range

Request: Note: place this variant into its band. Item: UAACAGGGGGCCACAGCGGAAGCGUUCACGUCGCAGCCCCUGUCAGAUUCUGGUGAAUCUGCGAAUGCUGCUGUAUAUCUC [A18G U67G]
Result: mid range

FYI, the data here is from the RNAGym collection of RNA variant scans (doi:10.1093/nar/gkz1192).
